Molecular target: T1, hGCGR-hFc (human)
T1 construct: also called REGN316
T1 sequence (chain, as listed by the source limits assumed): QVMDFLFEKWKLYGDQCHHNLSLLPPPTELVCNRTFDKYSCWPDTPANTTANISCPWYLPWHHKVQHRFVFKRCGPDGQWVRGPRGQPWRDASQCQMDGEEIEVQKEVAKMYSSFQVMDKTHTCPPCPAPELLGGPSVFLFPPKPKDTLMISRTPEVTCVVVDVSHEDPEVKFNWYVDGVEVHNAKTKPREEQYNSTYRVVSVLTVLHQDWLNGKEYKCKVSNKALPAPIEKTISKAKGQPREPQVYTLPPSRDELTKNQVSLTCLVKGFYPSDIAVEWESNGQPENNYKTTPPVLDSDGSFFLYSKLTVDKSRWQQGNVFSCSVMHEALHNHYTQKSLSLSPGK
Test: SPR Biacore T100, 25C, mAb captured, antigen flowed
Protocol: Measurements were conducted on a T100 Biacore instrument. […] Binding dissociation equilibrium constants and dissociative half-lives were calculated from the kinetic rate constants as: KD=kd/kₐ; t_{1/2}=(In2/kd).
measured.quantity: pKd
# log scale: pKd equals minus log10 of the concentration in mol/L

Solved cases (2 shown):
| binder | pKd |
| --- | --- |
| H4H1339P (antibody, V domains shown, Fully human anti-GCGR antibody; the controls are called isotype-matched hIgG4) VH: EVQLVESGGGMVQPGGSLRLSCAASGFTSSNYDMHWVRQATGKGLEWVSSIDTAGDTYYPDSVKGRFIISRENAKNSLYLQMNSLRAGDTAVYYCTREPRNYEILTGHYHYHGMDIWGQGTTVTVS VL: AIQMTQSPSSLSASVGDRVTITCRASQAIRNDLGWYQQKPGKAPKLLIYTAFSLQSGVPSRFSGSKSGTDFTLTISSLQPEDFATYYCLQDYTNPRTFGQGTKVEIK | 10.21 |
| H4H1331P (antibody, V domains shown, Fully human anti-GCGR antibody; the controls are called isotype-matched hIgG4) VH: QVQLVESGGGVVQPGRSLRLSCAASGFTFSNFGMHWVRQAPGKGLEWVAVIWFDEIDKYYADSVKGRFTISRDNSKNTLYPQMNSLRAEDTAVYYCAREDYDILTGYYYAMDVWGQGTTVTVS VL: DIQMTQSPSSLSASVGDRVTITCRASQGIKNDLGWYQQKPGKAPKRLIYAASRLQSGVPSRFSGSGSGTEFTLTISSLQPEDFGTYYCLQHNSHPTFGQGTKVEIK | 10.69 |

Below: the item to evaluate.
Ask: Would you mind telling me what pKd value was observed for H4H1327P (antibody, V domains shown, also called anti-GCGR (hIgG4) antibody designated H4H1327P) VH: EVQLVESGGGLVQPGGSLRLSCAASGFTFSNYLMNWVRQAPGKGLEWLANIQEDGIEKYYVDSVKGRFTISRDNAKNSLYLQMNSLRAEDTAVYYCAREPSHYDILTGYDYYYGMDVWGQGTTVTVS VL: DIQMTQSPSSLSASVGDRVTITCRASQGIRNDLGWYQQKPGKAPKRLIYAASSLQSGVPSRFSGSGSGTEFILTVSSLQPEDFATYYCLQYNSNPFTFGPGTKVDIK ?
Result: 10.47

Value source: patent US20130251728A1
